Data origin: patent US20200407445A1

Target: T1, Mouse TIGIT-Fc (mouse, UniProt P86176 29-148, limits assumed)
T1 construct: not shown: Fc part
T1 sequence (looked up): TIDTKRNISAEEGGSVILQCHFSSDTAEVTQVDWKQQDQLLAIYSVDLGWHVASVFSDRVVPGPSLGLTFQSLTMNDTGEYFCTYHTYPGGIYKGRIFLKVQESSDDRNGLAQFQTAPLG
Assay: ForteBio BLI, Fab KD, monovalent
Reported endpoint: log10(Kd) (log10 of the value in nM)
Please note: log10 values; quantity Kd; unit nM.

Input Fab of anti-TIGIT clone 29523 (Fab, V domains shown) VH: EVQLVESGGGVVQPGRSLRLSCAASGFTFGSYYMHWVRQAPGKGLEWVAVIWPDGSNKLYADSVKGRFTISRDNSKNTLYLQMNSLRAEDTALYYCAKPVPKSRALDVWGQGTMVTVSS VL: DIQLTQSPSSVSASVGDRVTITCRASQGISSWLAWYQQKPGKAPKLLIYGASSLQSGVPSRFSGSGSGTDFTLTISSLQPEDFATYYCQQAFYLPWTFGGGTKVEIK . Output log10(Kd): 1.28

// log10(Kd) value for Fab of anti-TIGIT clone 29513 (Fab, V domains shown) VH: QVQLVQSGAEVKKPGSSVKVSCKASGGTFQNYAISWVRQAPGQGLEWMGVIVPIFGTANYAQKFQGRVTVTADESTSTAYMELSSLRSEDTAVYYCARLHLGQKAYYGMDVWGQGTTVTVSS VL: DIQMTQSPSSLSASVGDRVTITCRASQSISSYLNWYQQKPGKAPKLLIYAASSLQSGVPSRFSGSGSGTDFTLTISSLQPEDFATYYCQQRYVFPPTFGGGTKVEIK : 1.93

Data point: Fab of anti-TIGIT clone 29520 (Fab, V domains shown) VH: QVQLVESGGGLVQPGRSLRLSCAASGFTFRDYAMHWVRQAPGKGLEWVSGITWNSGLIGYADSVKGRFTISRDNAKNSLYLQMNSLRAEDTALYYCAKPVPRLRGLDVWGQGTMVTVSS VL: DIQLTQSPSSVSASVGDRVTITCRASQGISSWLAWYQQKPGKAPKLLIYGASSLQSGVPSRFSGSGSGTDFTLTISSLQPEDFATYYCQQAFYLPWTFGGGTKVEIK ; log10(Kd) = 0.29

Record Fab of anti-TIGIT clone 29494 (Fab, V domains shown) VH: QVQLQESGPGLVKPSETLSLTCTVSGGSISSGSYYLAWIRQPPGKGLEWIGSIFRSGSTYYNPSLESRVTISVDTSKNQFSLKLSSVTAADTAVYYCAIEGANFKDFGYVAFDIWGQGTMVTVSS VL: EIVMTQSPATLSVSPGERATLSCRASQSVSSNLAWYQQKPGQAPRLLIYGASTRATGIPARFSGSGSGTEFTLTISSLQSEDFAVYYCQQSPPWPRTFGGGTKVEIK . Reported log10(Kd): 1.73

// field: log10(Kd); key: Fab of anti-TIGIT clone 29478 (Fab, V domains shown) VH: EVQLVESGGGVVQPGRSLRLSCAASGFTFESYGMVWVRQAPGKGLEWVASILYDGSNRYYADSVKGRFTVSRDNSKNTLYLQMNSLRAEDTAVYYCARVSYYYDSVELRWAEYFQHWGQGTLVTVSS VL: EIVLTQSPATLSLSPGERATLSCRASQSVSSYLAWYQQKPGQAPRLLIYDASKRATGIPARFSGSGSGTDFTLTISSLEPEDFAVYYCQQVHNFPLTFGGGTKVEIK ; value = 1.96

Form: binder = Fab of anti-TIGIT clone 26493 (Fab, V domains shown) VH: EVQLVESGGGLVQPGRSLRLSCAASGFTFGDYAMHWVRQAPGKGLEWVSGITWNSGSIGYADSVKGRFTISRDNAKNSLYLQMNSLRAEDTALYYCAKPVPKSRGLDVWGQGTMVTVSS VL: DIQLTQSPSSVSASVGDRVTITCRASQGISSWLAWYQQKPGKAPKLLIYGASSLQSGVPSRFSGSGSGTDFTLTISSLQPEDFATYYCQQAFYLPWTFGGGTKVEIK ; log10(Kd) = 1.43

So for Fab of anti-TIGIT clone 29527 (Fab, V domains shown) VH: QVQLVESGGGVVQPGRSLRLSCAASGFTFSSSYMHWVRQAPGKGLEWVAVIGADGSNKYYADSVEGRFTISRDNSKNTLYLQMNSLRAEDTALYYCAKPVPRRRGLDVWGQGTMVTVSS VL: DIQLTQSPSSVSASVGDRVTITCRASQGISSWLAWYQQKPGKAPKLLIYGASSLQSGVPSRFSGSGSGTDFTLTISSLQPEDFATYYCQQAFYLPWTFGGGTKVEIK , the logged log10(Kd) turned out to be 1.31

Consider Fab of anti-TIGIT clone 29499 (Fab, V domains shown) VH: QLQLQESGPGLVKPSETLSLTCTVSGGSISSSRYYWAWIRQPPGKGLEWIGSIGTSGSTYYNPSLKSRVTISVDTSKNQFSLKLSSVTATDTAVYYCAIEGANFRDFGYVAFDIWGQGTMVTVSS VL: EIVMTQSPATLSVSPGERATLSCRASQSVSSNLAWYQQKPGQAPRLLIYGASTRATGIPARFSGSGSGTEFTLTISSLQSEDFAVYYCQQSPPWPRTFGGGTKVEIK . Its measured log10(Kd) is 1.41
